- Test system: Vero E6 infected with SARS-CoV-2
- Measurement notes: morphology score (similarity to uninfected cells); higher = more like uninfected cells
- Test context: 24 h
Result type: morphology score
Output spec: single numeric token, no unit.

Query: Endpoint output: morphology score of CN(C)Cc1cccc(N/C(=C2\C(=O)Nc3cc(C(N)=O)ccc32)c2ccccc2)c1 (10 µM) . Value?
Response: -0.132

Query: What do you have for CN[C@@H](C)C(=O)N[C@H]1CCCC[C@H]2CC[C@@H](C(=O)N[C@@H](c3ccccc3)c3cn(CCCCc4ccc(CCCCn5cc([C@@H](NC(=O)[C@@H]6CC[C@@H]7CCCC[C@H](NC(=O)[C@H](C)NC)C(=O)N76)c6ccccc6)nn5)cc4)nn3)N2C1=O (10 µM) ?
Response: 0.155

Query: # iterate: COc1cc2c(cc1OC)[C@@H](Cc1cc(OC)c(OC)c(OC)c1)[N+](C)(CCCOC(=O)CC/C=C/CCC(=O)OCCC[N+]1(C)CCc3cc(OC)c(OC)cc3[C@H]1Cc1cc(OC)c(OC)c(OC)c1)CC2 (stereo partly drawn) [mivacurium] (10 µM)
Response: -0.0909

---

- Tested on: Vero E6 infected with SARS-CoV-2
- Measurement notes: SARS-CoV-2 infection rate relative to infected DMSO; higher = more infection, active = 60 or less
- Test context: 24 h
Could you please report measured SARS-CoV-2 infection rate for the items listed next?
Give a bare numeral; the unit % is implied.

Query: Looking for the measured SARS-CoV-2 infection rate of Cc1ccc(-c2ncc(Cl)cc2-c2ccc(S(C)(=O)=O)cc2)cn1 [etoricoxib] (10 µM) , can you help?
Response: 114

Query: Next record, please: Nc1nc(N)c2nc(-c3cccc(O)c3)cnc2n1 (10 µM)
Response: 101

Query: Same for O[C@@H]1CO[C@H]2[C@@H]1OC[C@@H]2O [isosorbide] (10 µM)
Response: 112

Query: Try O=C(NCCCN1CCOCC1)c1ccc(Cl)cc1 [eprobemide] (10 µM) next.
Response: 108

Query: CN1CCN(CCCN2c3ccccc3Sc3ccc(S(=O)(=O)N(C)C)cc32)CC1 [thioproperazine] (10 µM) ?
Response: 102

---

- Tested on: Vero E6 infected with SARS-CoV-2
- Measurement notes: inhibition of SARS-CoV-2 cytopathic effect; higher = more antiviral protection, active = above 15
- Test context: 10000 nM; 48 h
Provide the recorded inhibition of SARS-CoV-2 cytopathic effect for the entries that follow.
Give just the number in %; leave the unit off.

Query: Which value of inhibition of SARS-CoV-2 cytopathic effect has been reported for NS(=O)(=O)c1cc(Cl)c(Cl)c(S(N)(=O)=O)c1 [diclofenamide] in the records?
Response: -2.7

Query: Now consider C#CCN1C(C)=C(C(=O)OC)C(c2cccc([N+](=O)[O-])c2)C(C(=O)OCC)=C1C (stereo not given) .
Response: 6.77

Query: Same read-out for `Cc1oc(=O)oc1COC(=O)C1=C([C@H]2CCCO2)S[C@@H]2[C@@H]([C@@H](C)O)C(=O)N12` ?
Response: 1.04

Query: Further, for Nc1ncnc2c1ncn2[C@@H]1O[C@H](CO)C[C@H]1O [cordycepin] ?
Response: -3.28

Query: Param item: CC(=O)Oc1cc2c(s1)CCN(C(C(=O)C1CC1)c1ccccc1F)C2 (stereo not given)
Response: -0.82
